test: Reducing ability in DPPH assay; conditions: compound 100 μM, 20 min
Field: RA (%) 100μM 20 min. Provide a value for each of the molecules that follow.
Numbers only; they are read as %.

molecule CN1CCN(c2nc(N3CCN(C)CC3)c3nccnc3n2)CC1 [Compound 9] , RA (%) 100μM 20 min observed: 8

molecule CC(Cc1ccc(O)c(O)c1)C(C)Cc1ccc(O)c(O)c1 (centres unmarked) [NDGA, Nordihydroguaiaretic acid, reference compound] , RA (%) 100μM 20 min observed: 81

molecule CN1CCN(c2nc(NCc3ccccc3)c3nccnc3n2)CC1 [Compound 18a] , RA (%) 100μM 20 min observed: 2

molecule COc1ccccc1CNc1nc(N2CCN(C)CC2)nc2nccnc12 [Compound 18b] , RA (%) 100μM 20 min observed: 13

molecule CCN1CCNc2nc(N3CCN(C)CC3)nc(N3CCN(C)CC3)c21 [Compound 10a] , RA (%) 100μM 20 min observed: 79

Sourced from paper PMC5462101
